Collected Percentage inhibition of ligand binding, Adrenergic α1B (0.1 μM) values appear next to each entry.
# Target: rat adrenergic α1B receptor (Rattus norvegicus, UniProt P15823)
# Construct: rat adrenergic α1B receptor obtained from Wistar Rat liver; from tissue; host or cells: Wistar rat liver
# Sequence (P15823 whole entry): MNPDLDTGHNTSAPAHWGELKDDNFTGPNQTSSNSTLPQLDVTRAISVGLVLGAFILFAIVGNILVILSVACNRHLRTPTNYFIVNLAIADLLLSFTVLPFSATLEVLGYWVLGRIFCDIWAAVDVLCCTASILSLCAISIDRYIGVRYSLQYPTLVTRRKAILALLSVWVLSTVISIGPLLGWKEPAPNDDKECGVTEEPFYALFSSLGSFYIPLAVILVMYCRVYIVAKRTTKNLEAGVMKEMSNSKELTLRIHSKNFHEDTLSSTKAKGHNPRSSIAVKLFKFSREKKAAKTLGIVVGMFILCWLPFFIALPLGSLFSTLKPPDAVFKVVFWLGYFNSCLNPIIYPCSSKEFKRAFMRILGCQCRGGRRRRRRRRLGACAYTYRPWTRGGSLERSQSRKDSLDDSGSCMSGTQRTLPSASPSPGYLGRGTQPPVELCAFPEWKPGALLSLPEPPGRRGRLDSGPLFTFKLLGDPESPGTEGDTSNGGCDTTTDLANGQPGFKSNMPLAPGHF
# Test Name: Radioligand binding, adrenergic α1B ([3H]Prazosin)
# Assay Conditions: compound at 0.1 μM; [3H]Prazosin; repeat datapoints each shown; 0.1 µM
The reply should be a number in %, with the unit left off.

// below: answered molecules
Entry Cc1ccc2c(c1)c1c(n2CC(OC(=O)c2ccncc2)c2ccncc2)CCN(C)C1 (single isomer, unassigned) [147a] ; assay system rat adrenergic α1B receptor (Rattus norvegicus, UniProt P15823); Percentage inhibition of ligand binding, Adrenergic α1B (0.1 μM) recorded at 33

Given the molecule CC(O)(Cn1c2c(c3cc(Cl)ccc31)C1CCCN1CC2)c1cccnc1 (single isomer, unassigned) [II-130b] and test system rat adrenergic α1B receptor (Rattus norvegicus, UniProt P15823), the measured Percentage inhibition of ligand binding, Adrenergic α1B (0.1 μM) is 3

Entry Cc1cc(C)c2c(c1)c1c(n2CC(O)c2ccncc2)CCN2CCCC12 (single isomer, unassigned) [II-125d] , rat adrenergic α1B receptor (Rattus norvegicus, UniProt P15823) data, Percentage inhibition of ligand binding, Adrenergic α1B (0.1 μM) value: 64

---
Assay rat adrenergic α1B receptor (Rattus norvegicus, UniProt P15823), sample CN1CCc2c(c3cc(Cl)cnc3n2CC(C)(O)c2ccc(C(F)(F)F)nc2)C1 (single isomer, unassigned) [II-109b] , Percentage inhibition of ligand binding, Adrenergic α1B (0.1 μM) read: 5

Record Cc1cnc2c(c1)c1c(n2CCc2ccc(C)nc2)CCN(C)C1 [II-110] has rat adrenergic α1B receptor (Rattus norvegicus, UniProt P15823) Percentage inhibition of ligand binding, Adrenergic α1B (0.1 μM) equal to 36

For Cc1cnc2c(c1)c1c(n2CC(O)c2ccc(F)cc2)CCN(C)C1 (single isomer, unassigned) [136a] on rat adrenergic α1B receptor (Rattus norvegicus, UniProt P15823), measured Percentage inhibition of ligand binding, Adrenergic α1B (0.1 μM) was 54

Item Cc1ccc2c(c1)c1c(n2CC(N=[N+]=[N-])c2ccncc2)CCN(C)C1 (racemic) [V-1b] was tested on rat adrenergic α1B receptor (Rattus norvegicus, UniProt P15823); the reported Percentage inhibition of ligand binding, Adrenergic α1B (0.1 μM) is 57

// molecule Cc1ccc2c(c1)c1c(n2CC(C)(O)c2cccnc2)C(O)CN(C)C1 (single isomer, unassigned) [II-151b] , assay rat adrenergic α1B receptor (Rattus norvegicus, UniProt P15823), Percentage inhibition of ligand binding, Adrenergic α1B (0.1 μM) value: 13

Known value: rat adrenergic α1B receptor (Rattus norvegicus, UniProt P15823) Percentage inhibition of ligand binding, Adrenergic α1B (0.1 μM) of the molecule CCN1CCc2c(c3cc(C)ccc3n2CC(O)c2ccc(C)cc2)C1 (single isomer, unassigned) [203b] equals 47

Value sought: Percentage inhibition of ligand binding, Adrenergic α1B (0.1 μM), system rat adrenergic α1B receptor (Rattus norvegicus, UniProt P15823), item CC1Cc2c(c3cc(Cl)ccc3n2CC(C)(O)c2cccnc2)CN1C (single isomer, unassigned) [II-147a] . Result: 32
